- tested.on: c-Src SH2
- experimental.protocol: SH2 binding enrichment of the phosphorylated peptide, bacterial display (enrichment ratio); higher = better substrate or ligand; peptides without Tyr show the background
quantity: SH2 binding enrichment
Numbers only.

Respectfully, I request SH2 binding enrichment for each entry included below.
1. SQQTYYPVSNM [ABCD1_Y181_R182P]
2. SVAVPYEPPEV [TP53_Y220_V217A]

Solution:
1. 0.532
2. 0.728

Respectfully, I request SH2 binding enrichment for each entry included below.
1. VQQVIYATRAL [MYH7_Y422_G425R]
2. TSQSQYFSFRE [CCDC170_Y323]

Solution:
[0.518, 0.796]

Respectfully, I request SH2 binding enrichment for each entry included below.
1. SKEPFYVHCIK [MYO1D_Y586_R588H_YF]
2. KAESWYQTKYE [KRT75_Y342_E337K]
3. LKGQVYILGGE [ASS1_Y359_R363G]
4. PLGPLYASSNP [INSR_Y992]
5. KRISCYEASFQ [PFKFB3_Y194_YF]
6. FPIDHYLGKEM [G6PD_Y202_R198P_YF]
7. GHNDVYISEHV [GRIN2A_Y1423]
8. SWDKRYCEAGC [ITGA2B_Y197_F202C]

Solution:
1. 0.574
2. 0.479
3. 0.529
4. 0.75
5. 0.502
6. 0.497
7. 0.456
8. 0.651

Respectfully, I request SH2 binding enrichment for each entry included below.
1. NPSFNYEIVNR [DYNC1H1_Y3379_YF]
2. IRDENYGEGSS [ACO2_Y665_G661R]
3. VASMFYTLVIP [OR8K3_Y277_I275M]
4. SGTFQYIIAKF [FOXL2_Y83_I80T_YF]
5. VGRVGYVSGWG [HP_Y280]
6. CFTRQYTLPPG [HSPB1_Y142_K141Q]
7. ISDNACQFMLT [MYH7_Y162_Y162C_YF]

Solution:
[0.574, 0.532, 0.783, 0.58, 0.606, 0.523, 0.419]

Respectfully, I request SH2 binding enrichment for each entry included below.
1. DPHECYAKVFD [ALB_Y394]
2. EGLKVYVNGTL [ADGRD1_Y183]
3. EEKSCYILHSS [PATJ_Y783_E780K]
4. GSERRYSREGG [PTPRN2_Y139]

Solution:
1: 3.02; 2: 0.502; 3: 0.628; 4: 0.475

Respectfully, I request SH2 binding enrichment for each entry included below.
1. WFKKFYDANYD [MAPRE2_Y158]
2. PAIERYVVVCK [RHO_Y136_L131P]
3. RNLLIYTEFGK [HGD_Y166_G161R]
4. CTTIHCNFMCN [TP53_Y234_Y234C_YF]
5. NSVLVYRNGDP [DCDC2_Y22_K17N]

Solution:
1. 0.581
2. 0.686
3. 0.457
4. 0.837
5. 0.401

Problem: Query the reported SH2 binding enrichment for c-Src SH2; item: AAYNRYDQERF [CDC73_Y293]
Solution: 0.497

====

Provide the recorded phosphorylation enrichment for the entries that follow.
- tested.on: Jak2 (UniProt O60674)
- Sequence (O60674 whole entry, looked up): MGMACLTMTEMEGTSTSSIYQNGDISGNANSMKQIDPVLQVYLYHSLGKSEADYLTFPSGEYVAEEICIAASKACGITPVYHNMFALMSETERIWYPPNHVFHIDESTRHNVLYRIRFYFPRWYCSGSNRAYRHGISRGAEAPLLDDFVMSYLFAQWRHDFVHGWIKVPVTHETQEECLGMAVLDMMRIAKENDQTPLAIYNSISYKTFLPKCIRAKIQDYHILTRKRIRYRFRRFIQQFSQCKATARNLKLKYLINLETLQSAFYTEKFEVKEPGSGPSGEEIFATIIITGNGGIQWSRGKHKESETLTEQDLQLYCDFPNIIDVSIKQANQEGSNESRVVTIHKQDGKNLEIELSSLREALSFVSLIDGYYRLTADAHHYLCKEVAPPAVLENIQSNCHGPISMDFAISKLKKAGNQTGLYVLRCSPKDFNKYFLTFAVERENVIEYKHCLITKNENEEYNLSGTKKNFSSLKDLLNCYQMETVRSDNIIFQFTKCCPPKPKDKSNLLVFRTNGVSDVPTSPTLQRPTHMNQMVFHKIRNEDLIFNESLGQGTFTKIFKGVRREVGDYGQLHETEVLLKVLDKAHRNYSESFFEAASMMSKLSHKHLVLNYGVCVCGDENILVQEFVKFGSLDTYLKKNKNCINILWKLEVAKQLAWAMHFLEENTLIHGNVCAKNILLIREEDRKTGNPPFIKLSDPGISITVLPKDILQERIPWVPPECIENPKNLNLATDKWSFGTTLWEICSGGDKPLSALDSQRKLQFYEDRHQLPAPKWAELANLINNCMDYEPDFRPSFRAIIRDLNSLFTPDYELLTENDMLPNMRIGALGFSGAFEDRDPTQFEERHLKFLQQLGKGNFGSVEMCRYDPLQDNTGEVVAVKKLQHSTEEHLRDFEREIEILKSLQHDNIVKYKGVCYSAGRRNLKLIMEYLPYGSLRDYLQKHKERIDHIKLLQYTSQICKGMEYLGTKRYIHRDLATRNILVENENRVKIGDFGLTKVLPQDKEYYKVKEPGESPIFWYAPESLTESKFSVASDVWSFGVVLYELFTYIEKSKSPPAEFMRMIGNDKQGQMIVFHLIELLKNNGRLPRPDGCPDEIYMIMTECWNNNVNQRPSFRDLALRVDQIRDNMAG
- experimental.protocol: phosphorylation enrichment, bacterial display (enrichment ratio); higher = better substrate or ligand; peptides without Tyr show the background
Numbers only.

Study these solved cases before continuing.
>  <chain.sequence>
ARGTRYRFVSQ [UCN3_Y95_YF]

>  <tested.on>
Jak2 (UniProt O60674)

>  <phosphorylation enrichment>
0.742

$$$$
>  <chain.sequence>
PELINYHQPNS [BTK_Y361_H364P]

>  <tested.on>
Jak2 (UniProt O60674)

>  <phosphorylation enrichment>
0.829

$$$$
>  <chain.sequence>
TKVVHYRKWIK [KLK2_Y249]

>  <tested.on>
Jak2 (UniProt O60674)

>  <phosphorylation enrichment>
0.415

$$$$

Respectfully, I request phosphorylation enrichment for each entry included below.
1. RLAKRYLIWEC [SCN5A_Y694_Q692K]
2. ISIFHYAKGQP [MPZ_Y82]
3. GAVGNYSGGLA [MGMT_Y158]

Solution:
[0.852, 0.855, 0.419]

Respectfully, I request phosphorylation enrichment for each entry included below.
1. EQMLEYMGQLQ [CFAP45_Y289_E291G]
2. FSDQVYRQHRK [TH_Y230_R233H]
3. KNKKDYYDMYE [SLC26A3_Y526]
4. HKLSYCEYDFE [BTK_Y40_Y40C]
5. RHFTGYRIELQ [INSR_Y818]
6. AEPTGYSAELS [EZR_Y499]
7. LKDEDYLKDTV [HAUS3_Y582_I586T]
8. EPSVDYCVVKI [CAD_Y735]

Solution:
0.873
0.529
0.67
1.29
0.989
1.08
2.34
1.1
